Test System: human MLKL (full length) (Homo sapiens (Human), UniProt Q8NB16)
Sequence (Q8NB16 whole entry): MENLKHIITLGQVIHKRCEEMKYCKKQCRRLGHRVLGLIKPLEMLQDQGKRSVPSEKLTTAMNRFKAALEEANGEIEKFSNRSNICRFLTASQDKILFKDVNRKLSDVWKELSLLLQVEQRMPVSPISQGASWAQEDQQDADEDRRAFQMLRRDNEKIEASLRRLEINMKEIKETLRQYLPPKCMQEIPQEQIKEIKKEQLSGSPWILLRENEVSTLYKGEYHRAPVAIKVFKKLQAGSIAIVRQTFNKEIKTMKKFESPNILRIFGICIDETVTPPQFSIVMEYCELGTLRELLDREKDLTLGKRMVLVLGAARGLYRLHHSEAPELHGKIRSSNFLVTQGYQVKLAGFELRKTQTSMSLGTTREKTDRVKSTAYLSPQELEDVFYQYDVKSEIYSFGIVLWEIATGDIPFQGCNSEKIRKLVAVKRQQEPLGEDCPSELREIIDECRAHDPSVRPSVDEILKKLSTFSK
Protocol Details: KINOMEscan binding assay, human MLKL (full length)
Recorded Conditions: hMLKL, Table 25; read-out: MLKL (KD)
Overview of reported Kd across a group of molecules:

What does the data say about its Kd? Entry: C[C@H](Oc1cc(-c2nn(C)c3c(-c4cnn(C5CCN(C(=O)C6CC7(CCN(c8cccc9c8C(=O)N(C8CCC(=O)NC8=O)C9=O)CC7)C6)CC5)c4)cnc(N)c23)ccc1NS(=O)(=O)C(F)F)c1ccc(F)cc1 (stereo partly shown)
10 to 1000 nM

Consider the molecule Cc1ncsc1-c1ccc(CNC(=O)[C@@H]2C[C@@H](O)CN2C(=O)[C@@H](NC(=O)C2(F)CC2)C(C)(C)C)c(OCCCCCCCCCn2cc(-c3cnc(N)c4c(-c5ccc(NS(=O)(=O)C(F)F)c(O[C@@H](C)c6ccc(F)cc6)c5)nn(C)c34)cn2)c1 [Compound 1041] and give its measured Kd.
10 to 1000 nM

Which Kd value is on record for C[C@H](Oc1cc(-c2nn(C)c3c(-c4cnn(C5CCN(C(=O)N6CCN(c7cccc8c7C(=O)N(C7CCC(=O)NC7=O)C8=O)CC6)CC5)c4)cnc(N)c23)ccc1NS(=O)(=O)C(F)F)c1ccc(F)cc1 (stereo partly shown) ?
< 10 nM

What does the record list as Kd for C[C@H](Oc1cc(-c2nn(C)c3c(-c4cnn(C5CCN(CCCC6CCN(c7cccc8c7C(=O)N(C7CCC(=O)NC7=O)C8=O)CC6)CC5)c4)cnc(N)c23)ccc1NS(=O)(=O)C(F)F)c1ccc(F)cc1 (stereo partly shown) ?
< 10 nM

###

Test System: UniProt Q9D2Y4
Sequence (Q9D2Y4 whole entry): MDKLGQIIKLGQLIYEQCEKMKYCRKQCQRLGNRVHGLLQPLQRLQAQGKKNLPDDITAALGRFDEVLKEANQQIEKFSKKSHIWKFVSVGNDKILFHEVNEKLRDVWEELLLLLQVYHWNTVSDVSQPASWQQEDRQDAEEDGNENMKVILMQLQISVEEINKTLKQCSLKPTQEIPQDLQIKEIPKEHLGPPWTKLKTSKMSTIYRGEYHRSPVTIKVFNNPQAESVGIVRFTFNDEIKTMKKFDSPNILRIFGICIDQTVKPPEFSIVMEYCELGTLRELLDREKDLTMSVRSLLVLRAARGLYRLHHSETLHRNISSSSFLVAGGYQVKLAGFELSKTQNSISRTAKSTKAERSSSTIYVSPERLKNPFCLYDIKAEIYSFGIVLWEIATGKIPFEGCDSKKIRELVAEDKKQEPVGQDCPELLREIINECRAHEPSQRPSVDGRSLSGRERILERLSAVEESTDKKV
Protocol Details: Degradation assay: endogenous MLKL in MDF (western blot)
Recorded Conditions: MDF cells, 24 h incubation with compound, MLKL adjusted for loading with GAPDH, normalized to DMSO only control, read-out: Degradation of endogenous MLKL in MDF (DC50 cell-based assay)
Measured Metric: DC50

Lookup: DC50 / UniProt Q9D2Y4 / C[C@H](Oc1cc(-c2nn(C)c3c(-c4cnn(C5CCN(C(=O)CC(=O)N6CCN(c7cccc8c7C(=O)N(C7CCC(=O)NC7=O)C8=O)CC6)CC5)c4)cnc(N)c23)ccc1NS(=O)(=O)C(F)F)c1ccc(F)cc1 (some centres unmarked) [Compound 1098]
< 1 µM

Provide the documented DC50 with UniProt Q9D2Y4 as the system for Cn1nc(-c2ccc(NS(=O)(=O)C(F)F)c(F)c2)c2c(N)ncc(-c3cnn(C4CCN(C(=O)N5CCN(c6cccc7c6C(=O)N(C6CCC(=O)NC6=O)C7=O)CC5)CC4)c3)c21 (centres unmarked) [Compound 1131]
< 1 µM

More entries:
Under UniProt Q9D2Y4: DC50 value of C[C@H](Oc1cc(-c2nn(C)c3c(-c4cnn(C5CCN(C(=O)COc6ccc7c(c6)C(=O)N(C6CCC(=O)NC6=O)C7=O)CC5)c4)cnc(N)c23)ccc1NS(=O)(=O)C(F)F)c1ccc(F)cc1 (some centres unmarked) [Compound 1085] ?
1 to 10 µM

Could you share what DC50 was measured for C[C@H](Oc1cc(-c2nn(C)c3c(-c4cnn(C5CCN(CCC6CCN(c7cccc8c7C(=O)N(C7CCC(=O)NC7=O)C8=O)CC6)CC5)c4)cnc(N)c23)ccc1NS(=O)(=O)C(F)F)c1ccc(F)cc1 (some centres unmarked) [Compound 1076] , tested on UniProt Q9D2Y4?
1 to 10 µM

Fill in the recorded DC50 for this molecule, with UniProt Q9D2Y4 as test system: C[C@H](Oc1cc(-c2nn(C)c3c(-c4cnn(C5CCN(Cc6cccc(CNc7cccc8c7C(=O)N(C7CCC(=O)NC7=O)C8=O)c6)CC5)c4)cnc(N)c23)ccc1NS(=O)(=O)C(F)F)c1ccc(F)cc1 (some centres unmarked) [Compound 1095]
< 1 µM

Source listed as patent US20250115598A1.
